System: HCMV engineered virus RC256
experiment_description: microbe, parasite or virus in culture
Type: cell-based, human cytomegalovirus
condition_notes: Human betaherpesvirus 5, Fibroblast, read-out: Antiviral Activity RC256, first value (EC50)
property: pEC50
Quick note: pEC50 means taking -log10 of the concentration in moles per liter.

                                   compound  property  measurement
0  Cc1c(CNS(=O)(=O)c2ccccc2)ccc2nc(N[C@@H](Cc3ccccc3)C(=O)N(C)Cc3ccccc3)oc(=O)c12 [Example 13e]     pEC50         4.85
1  Cc1ccc(S(=O)(=O)NCc2cc(Br)c3nc(N[C@@H](Cc4ccccc4)C(=O)N(C)Cc4ccccc4)oc(=O)c3c2C)cc1 [Example 13d]     pEC50         5.10
2  COc1ccc(C[C@H](Nc2nc3ccc(CNC(=O)OCc4cccnc4)c(C)c3c(=O)o2)C(=O)N(C)Cc2ccccc2)cc1 [Example 18]     pEC50         4.85
3  COc1ccc(C[C@H](Nc2nc3ccc(CNC(=O)CCc4cccnc4)c(C)c3c(=O)o2)C(=O)N(C)Cc2ccccc2)cc1 [Example 9d]     pEC50         4.39

Asked: Reported pEC50 for HCMV engineered virus RC256, given Cc1c(NC(=O)OC(C)(C)C)ccc2nc(N[C@@H](Cc3c[nH]c4ccccc34)C(=O)N(C)C)oc(=O)c12 [Example 6o] ?
Given back: 4.23

Asked: Can you handle COC(=O)[C@H](Cc1cc(I)c(OC)c(I)c1)Nc1nc2ccc(NC(=O)OC(C)(C)C)c(C)c2c(=O)o1 [Example 6s] next?
Given back: 4.74

Asked: Moving on to the next compound: Cc1c(CNC(=O)CN(C)C)cc(Br)c2nc(N[C@@H](Cc3ccccc3)C(=O)N(C)Cc3ccccc3)oc(=O)c12 [Example 15a]
Given back: 4.68

Asked: Note, next up: COc1ccc(C[C@H](Nc2nc3cccc(C)c3c(=O)o2)C(=O)N(C)Cc2ccccc2)cc1 [Example 1s]
Given back: 5.15

Asked: What about COc1ccc(C[C@H](Nc2nc3ccc(CNC(=O)OCCN4CCCCC4)c(C)c3c(=O)o2)C(=O)N(C)Cc2ccccc2)cc1 [Example 18a] ?
Given back: 5.30

Asked: What would you report for Cc1cccc2nc(N[C@@H](CCCCNC(=O)OCc3ccccc3)C(=O)OC(C)(C)C)oc(=O)c12 [Example 1i] ?
Given back: 5.05

Asked: Please do the same for COC(=O)[C@H](Cc1c[nH]c2ccccc12)Nc1nc2cccc(C)c2c(=O)o1 [Example 1m] as well.
Given back: 4.25

Asked: Follow-up entry: COc1ccc(C[C@H](Nc2nc3ccc(NC(=O)Cc4cccs4)c(C)c3c(=O)o2)C(=O)N2CCCC2)cc1 [Example 11o]
Given back: 4.23

Asked: Same for Cc1c(CNC(=O)OC(C)(C)C)ccc2nc(N[C@@H](Cc3ccc(Cl)cc3)C(=O)N(C)Cc3ccccc3)oc(=O)c12 [Example 7p]
Given back: 4.70

* * *

Test system: HCMV engineered virus RC256
experiment_description: microbe, parasite or virus in culture
Type: cell-based, human cytomegalovirus
condition_notes: Human betaherpesvirus 5, Fibroblast, read-out: Antiviral Activity RC256, first value (EC50)
Measured pEC50 by item
pEC50 here: minus log base 10 of the concentration, concentration in moles per litre.

The examples below pair each entry with its known result.
>>> df
                                   compound               assayed_system  measurement
0  Cc1c(CNC(=O)NC(C)(C)C)ccc2nc(N[C@@H](Cc3ccccc3)C(=O)N(C)Cc3ccccc3)oc(=O)c12 [Example 12e]  HCMV engineered virus RC256         4.85
1  COc1ccc(C[C@H](Nc2nc3ccc(NC(=O)OCC(C)C)c(C)c3c(=O)o2)C(=O)N(C)Cc2ccccc2)cc1 [Example 11s]  HCMV engineered virus RC256         4.77
2  COc1ccc(C[C@H](Nc2nc3cccc(OC)c3c(=O)o2)C(=O)N(C)Cc2ccccc2)cc1  HCMV engineered virus RC256         4.85
3  Cc1c(CNC(=O)OCc2ccccc2)ccc2nc(N[C@@H](Cc3ccc(Cl)cc3)C(=O)N(C)Cc3ccccc3)oc(=O)c12  HCMV engineered virus RC256         4.70
4  COc1ccc(C[C@H](Nc2nc3ccc(CNC(=O)OC(C)(C)C)c(C)c3c(=O)o2)C(=O)N2CCCC2)cc1  HCMV engineered virus RC256         4.70
5  COc1ccc(C[C@H](Nc2nc3ccc(CNC(=O)NCc4ccncc4)c(C)c3c(=O)o2)C(=O)N(C)Cc2ccccc2)cc1  HCMV engineered virus RC256         4.46
6  Cc1c(CNC(=O)c2ccccn2)ccc2nc(N[C@@H](Cc3ccccc3)C(=O)N(C)Cc3ccccc3)oc(=O)c12  HCMV engineered virus RC256         5.12
7  Cc1cccc2nc(N[C@@H](Cc3ccc(O)cc3)C(=O)OC(C)(C)C)oc(=O)c12  HCMV engineered virus RC256         4.46
8  CCN(Cc1ccccc1)C(=O)[C@H](Cc1ccccc1)Nc1nc2c(Br)cc(N)c(C)c2c(=O)o1  HCMV engineered virus RC256         5.07
9  Cc1c(CNC(=O)OCc2cccnc2)ccc2nc(N[C@@H](Cc3ccccc3)C(=O)N(C)Cc3ccccc3)oc(=O)c12 [Example 18e]  HCMV engineered virus RC256         5.15

Asked: Quick one: pEC50 for COC(=O)[C@H](Cc1ccc(OC)cc1)Nc1nc2cccc(C)c2c(=O)o1 ?
Given back: 4.23

Asked: Again, but for CCOC(=O)Nc1ccc2nc(N[C@@H](Cc3ccc(OC)cc3)C(=O)N(C)Cc3ccccc3)oc(=O)c2c1C [Example 11r]
Given back: 4.92

Asked: Query COc1ccc(C[C@H](Nc2nc3ccc(CNC(=O)CC(C)(C)C)c(C)c3c(=O)o2)C(=O)N(C)Cc2ccccc2)cc1 next
Given back: 4.85

Asked: Ok, now COc1ccc(C[C@H](Nc2nc3ccc(CNC(=O)OC(C)(C)C)c(C)c3c(=O)o2)C(=O)N(C)Cc2ccccc2)cc1
Given back: 4.52
